- Tested on: HepG2 human cell line
- protocol notes: HepG2 cytotoxicity assay (CellTiter-Glo)
- experimental setup: HepG2 IC50 / HUVEC EC50
In this section we review reported selectivity index (SI) = IC50/EC50 values for a set of compounds.
Output: the number by itself.

smiles notation: O=C(/C=C1\C=CS(=O)(=O)C1)c1ccccc1
selectivity index (SI) = IC50/EC50: 1.3

Now for another entry.
# input Write selectivity index (SI) = IC50/EC50 of CCOc1cc(C=C(C#N)c2nc(-c3ccc(OC)cc3)cs2)ccc1O ; system used: HepG2 human cell line
# output 8.6

* * *

In this section we review reported IC50 at 72 h values for a set of molecules.
- protocol notes: HepG2 cytotoxicity assay (CellTiter-Glo)
- experimental setup: human, HepG2 cells
Form entry: value (µM) — number only.

# input Please indicate IC50 at 72 h recorded for O=C1C(=Cc2ccc(-c3ccc(Cl)cc3)o2)SC(=S)N1Cc1ccco1
# output 17

# input Please indicate IC50 at 72 h recorded for Cc1cc(C)c2c(N)c(C(=O)c3ccc(Br)cc3)sc2n1
# output 27

# input Please indicate IC50 at 72 h recorded for CC(=NNc1nc(Cl)c(C#N)c(Cl)c1Cl)c1ccccn1
# output 13
